# assay method text: qHTS RealTime-Glo MT Cell Viability Assay in HepG2 cells - 8 hour (AID 1224873); note: % is set by controls: 0 for no effect and ±100 for the full control effect; nearly all actives have a fitted effect of over 55% in size
# assay context: RealTime-Glo luminescence; series mostly up to 76.8 µM
Inconclusive results are not listed. Calls of active or inactive are those of the source. Calls come from the whole dose curve; as a rule, active = well fitted cell-killing curve with a large enough effect in the repeat runs; inconclusive = weak or mixed curves; inactive = flat fitted curve, though single readings scatter.
reported property: viability change, negative = cytotoxic

Cc1cc(C)c(N=Nc2c(O)c(S(=O)(=O)O)cc3cc(S(=O)(=O)O)ccc23)cc1C = 5.41% [at 6.97 µM] (inactive)
CCCC(C)C(=O)OCC (stereo unspecified) = inactive
CC[N+](CC)(CC)CCOc1cccc(OCC[N+](CC)(CC)CC)c1OCC[N+](CC)(CC)CC = inactive
CC(C)(N)C#N = inactive
CCCC(=O)O[C@]1(C(=O)CC)CC[C@H]2[C@@H]3CCC4=CC(=O)CC[C@]4(C)[C@H]3[C@@H](O)C[C@@]21C = inactive

Prompt: Returns the measured viability change, negative = cytotoxic for the input compound. Input: "O=C(O)CNC(=O)c1ccccc1"
Completion: inactive

Prompt: Returns the measured viability change, negative = cytotoxic for the input compound. Input: "CN1CCN(c2cc3c(nn2)Oc2ccccc2N3C)CC1"
Completion: -9.11% [at 15.8 µM] (inactive)

Prompt: Returns the measured viability change, negative = cytotoxic for the input compound. Input: COCCOC[C@H](CC1(C(=O)NC2CCC(C(=O)O)CC2)CCCC1)C(=O)Oc1ccc2c(c1)CCC2 (stereo partly specified)
Completion: inactive

Prompt: Returns the measured viability change, negative = cytotoxic for the input compound. Input: "NS(=O)(=O)Cc1noc2ccccc12"
Completion: inactive

Prompt: Returns the measured viability change, negative = cytotoxic for the input compound. Input: "Cc1nc2ccc(CN(C)c3ccc(C(=O)N[C@@H](CCC(=O)O)C(=O)O)s3)cc2c(=O)[nH]1"
Completion: inactive

Prompt: Returns the measured viability change, negative = cytotoxic for the input compound. Input: CCCCCCCC1CCCC1=O (stereo unspecified)
Completion: inactive
